Hey, just so you know, these numbers are from the supplement of paper PMC5998384.

For each of the sequences below, state its solubility change mitosis (log2).
- System: HeLa Kyoto
- assayText: solubility change mitosis vs G1/S (difference of NP-40 vs SDS log2 ratios) (log2 ratio difference); higher = more soluble in mitosis
Reply with just the number.

## Task Dear colleague, please send me the reported solubility change mitosis (log2) for MMKFKPNQTRTYDREGFKKRAACLCFRSEQEDEVLLVSSSRYPDQWIVPGGGMEPEEEPGGAAVREVYEEAGVKGKLGRLLGIFENQDRKHRTYVYVLTVTEILEDWEDSVNIGRKREWFKVEDAIKVLQCHKPVHAEYLEKLKLGCSPANGNSTVPSLPDNNALFVTAAQTSGLPSSVR [NUDT4] when you can.
## Result -0.0227

## Task Dear colleague, please send me the reported solubility change mitosis (log2) for MILTKAQYDEIAQCLVSVPPTRQSLRKLKQRFPSQSQATLLSIFSQEYQKHIKRTHAKHHTSEAIESYYQRYLNGVVKNGAAPVLLDLANEVDYAPSLMARLILERFLQEHEETPPSKSIINSMLRDPSQIPDGVLANQVYQCIVNDCCYGPLVDCIKHAIGHEHEVLLRDLLLEKNLSFLDEDQLRAKGYDKTPDFILQVPVAVEGHIIHWIESKASFGDECSHHAYLHDQFWSYWNRFGPGLVIYWYGFIQELDCNRERGILLKACFPTNIVTLCHSIA [C15ORF41] when you can.
## Result 0.0246

## Task Dear colleague, please send me the reported solubility change mitosis (log2) for MAANKPKGQNSLALHKVIMVGSGGVGKSALTLQFMYDEFVEDYEPTKADSYRKKVVLDGEEVQIDILDTAGQEDYAAIRDNYFRSGEGFLCVFSITEMESFAATADFREQILRVKEDENVPFLLVGNKSDLEDKRQVSVEEAKNRAEQWNVNYVETSAKTRANVDKVFFDLMREIRARKMEDSKEKNGKKKRKSLAKRIRERCCIL [RALA] when you can.
## Result -0.0413

---

- Tested on: HeLa Kyoto
- assayText: melting temperature (median over replicates), in situ; higher = more thermally stable
- measurementContext: cell cycle stage: G1/S
readout: melting temperature
Include the unit after the number when you answer.

## Task Dear colleague, please send me the reported melting temperature for MAGPRVEVDGSIMEGGGQILRVSTALSCLLGLPLRVQKIRAGRSTPGLRPQHLSGLEMIRDLCDGQLEGAEIGSTEITFTPEKIKGGIHTADTKTAGSVCLLMQVSMPCVLFAASPSELHLKGGTNAEMAPQIDYTVMVFKPIVEKFGFIFNCDIKTRGYYPKGGGEVIVRMSPVKQLNPINLTERGCVTKIYGRAFVAGVLPFKVAKDMAAAAVRCIRKEIRDLYVNIQPVQEPKDQAFGNGNGIIIIAETSTGCLFAGSSLGKRGVNADKVGIEAAEMLLANLRHGGTVDEYLQDQLIVFMALANGVSRIKTGPVTLHTQTAIHFAEQIAKAKFIVKKSEDEEDAAKDTYIIECQGIGMTNPNL [RTCA] when you can.
## Result 54.4 °C

## Task Dear colleague, please send me the reported melting temperature for MALPHDSNETSYLLPPNNEDWGRQTIPDFVYGQKDLMAEGIQWPRNAPGIPDALPQSPFDAALCSAWKQRVELGLFRYRLRELQTQILPGAVGFVAQLNVERGVQRRPPQTIKSVRQAFDPVQFNFNKIRPGEVLFRLHREPDLPGTLLQEDILVVINVSPLEWGHVLLVPEPARQLPQRLLPGALRAGIEAVLLSLHPGFRVGFNSLGGLASVNHLHLHGYYLAHRLPVEQAPSEPLDPGGHLHLLQDLPAPGFLFYTRGPGPDLESLISRVCRATDYLTDHEIAHNLFVTRGAPPGKTSPSSALTGVRVILWARKSSFGIKDGEAFNVALCELAGHLPVKTSQDFSSLTEAAAVALIQDCRLPPSQAEDVQAALVALMSQEEQ [GDPGP1] when you can.
## Result 52.5 °C

## Task Dear colleague, please send me the reported melting temperature for MAGPESDAQYQFTGIKKYFNSYTLTGRMNCVLATYGSIALIVLYFKLRSKKTPAVKAT [USMG5] when you can.
## Result 55 °C

## Task Dear colleague, please send me the reported melting temperature for MGAQFSKTAAKGEAAAERPGEAAVASSPSKANGQENGHVKVNGDASPAAAESGAKEELQANGSAPAADKEEPAAAGSGAASPSAAEKGEPAAAAAPEAGASPVEKEAPAEGEAAEPGSPTAAEGEAASAASSTSSPKAEDGATPSPSNETPKKKKKRFSFKKSFKLSGFSFKKNKKEAGEGGEAEAPAAEGGKDEAAGGAAAAAAEAGAASGEQAAAPGEEAAAGEEGAAGGDPQEAKPQEAAVAPEKPPASDETKAAEEPSKVEEKKAEEAGASAAACEAPSAAGPGAPPEQEAAPAEEPAAAAASSACAAPSQEAQPECSPEAPPAEAAE [MARCKS] when you can.
## Result 55.6 °C

## Task Dear colleague, please send me the reported melting temperature for MFPFYSCWRTGLLLLLLAVAVRESWQTEEKTCDLVGEKGKESEKELALVKRLKPLFNKSFESTVGQGSDTYIYIFRVCREAGNHTSGAGLVQINKSNGKETVVGRLNETHIFNGSNWIMLIYKGGDEYDNHCGKEQRRAVVMISCNRHTLADNFNPVSEERGKVQDCFYLFEMDSSLACSPEISHLSVGSILLVTFASLVAVYVVGGFLYQRLVVGAKGMEQFPHLAFWQDLGNLVADGCDFVCRSKPRNVPAAYRGVGDDQLGEESEERDDHLLPM [M6PR] when you can.
## Result 60.3 °C

## Task Dear colleague, please send me the reported melting temperature for MASKGPSASASPENSSAGGPSGSSNGAGESGGQDSTFECNICLDTAKDAVISLCGHLFCWPCLHQWLETRPNRQVCPVCKAGISRDKVIPLYGRGSTGQQDPREKTPPRPQGQRPEPENRGGFQGFGFGDGGFQMSFGIGAFPFGIFATAFNINDGRPPPAVPGTPQYVDEQFLSRLFLFVALVIMFWLLIA [RNF185] when you can.
## Result 53.4 °C

---

For each of the sequences below, state its thermal stability score.
- Tested on: HeLa Kyoto
- assayText: thermal stability score vs G1/S (z-score of summed log2 fold changes over temperatures); higher = more thermally stable than in G1/S
- measurementContext: cell cycle stage: mitosis
Reply with just the number.

## Task Jot down thermal stability score (HeLa Kyoto) of MESALPAAGFLYWVGAGTVAYLALRISYSLFTALRVWGVGNEAGVGPGLGEWAVVTGSTDGIGKSYAEELAKHGMKVVLISRSKDKLDQVSSEIKEKFKVETRTIAVDFASEDIYDKIKTGLAGLEIGILVNNVGMSYEYPEYFLDVPDLDNVIKKMININILSVCKMTQLVLPGMVERSKGAILNISSGSGMLPVPLLTIYSATKTFVDFFSQCLHEEYRSKGVFVQSVLPYFVATKLAKIRKPTLDKPSPETFVKSAIKTVGLQSRTNGYLIHALMGSIISNLPSWIYLKIVMNMNKSTRAHYLKKTKKN [HSD17B12] .
## Result -1.18

## Task Jot down thermal stability score (HeLa Kyoto) of MDPRKVNELRAFVKMCKQDPSVLHTEEMRFLREWVESMGGKVPPATQKAKSEENTKEEKPDSKKVEEDLKADEPSSEESDLEIDKEGVIEPDTDAPQEMGDENAEITEEMMDQANDKKVAAIEALNDGELQKAIDLFTDAIKLNPRLAILYAKRASVFVKLQKPNAAIRDCDRAIEINPDSAQPYKWRGKAHRLLGHWEEAAHDLALACKLDYDEDASAMLKEVQPRAQKIAEHRRKYERKREEREIKERIERVKKAREEHERAQREEEARRQSGAQYGSFPGGFPGGMPGNFPGGMPGMGGGMPGMAGMPGLNEILSDPEVLAAMQDPEVMVAFQDVAQNPANMSKYQSNPKVMNLISKLSAKFGGQA [ST13] .
## Result 1.79

---

- Test system: HeLa Kyoto
- assayText: thermal stability score vs G1/S (z-score of summed log2 fold changes over temperatures); higher = more thermally stable than in G1/S
- measurementContext: cell cycle stage: early G1 (4.5 h after nocodazole release)
Values of thermal stability score greater than or equal to -0.04 map to Criterion met; values below map to Criterion not met.

## Task Quick check, thermal stability score >= -0.04? MKIKDAKKPSFPWFGMDIGGTLVKLSYFEPIDITAEEEQEEVESLKSIRKYLTSNVAYGSTGIRDVHLELKDLTLFGRRGNLHFIRFPTQDLPTFIQMGRDKNFSTLQTVLCATGGGAYKFEKDFRTIGNLHLHKLDELDCLVKGLLYIDSVSFNGQAECYYFANASEPERCQKMPFNLDDPYPLLVVNIGSGVSILAVHSKDNYKRVTGTSLGGGTFLGLCSLLTGCESFEEALEMASKGDSTQADKLVRDIYGGDYERFGLPGWAVASSFGNMIYKEKRESVSKEDLARATLVTITNNIGSVARMCAVNEKINRVVFVGNFLRVNTLSMKLLAYALDYWSKGQLKALFLEHEGYFGAVGALLGLPNFS [PANK3]
## Result Criterion not met

## Task Quick check, thermal stability score >= -0.04? MKLGRAVLGLLLLAPSVVQAVEPISLGLALAGVLTGYIYPRLYCLFAECCGQKRSLSREALQKDLDDNLFGQHLAKKIILNAVFGFINNPKPKKPLTLSLHGWTGTGKNFVSKIIAENIYEGGLNSDYVHLFVATLHFPHASNITLYKDQLQLWIRGNVSACARSIFIFDEMDKMHAGLIDAIKPFLDYYDLVDGVSYQKAMFIFLSNAGAERITDVALDFWRSGKQREDIKLKDIEHALSVSVFNNKNSGFWHSSLIDRNLIDYFVPFLPLEYKHLKMCIRVEMQSRGYEIDEDIVSRVAEEMTFFPKEERVFSDKGCKTVFTKLDYYYDD [TOR1A]
## Result Criterion met

## Task Quick check, thermal stability score >= -0.04? MAAGTAAALAFLSQESRTRAGGVGGLRVPAPVTMDSFFFGCELSGHTRSFTFKVEEEDDAEHVLALTMLCLTEGAKDECNVVEVVARNHDHQEIAVPVANLKLSCQPMLSLDDFQLQPPVTFRLKSGSGPVRITGRHQIVTMSNDVSEEESEEEEEDSDEEEVELCPILPAKKQGGRP [NPM3]
## Result Criterion not met

## Task Quick check, thermal stability score >= -0.04? MKPLVVFVLGGPGAGKGTQCARIVEKYGYTHLSAGELLRDERKNPDSQYGELIEKYIKEGKIVPVEITISLLKREMDQTMAANAQKNKFLIDGFPRNQDNLQGWNKTMDGKADVSFVLFFDCNNEICIERCLERGKSSGRSDDNRESLEKRIQTYLQSTKPIIDLYEEMGKVKKIDASKSVDEVFDEVVQIFDKEG [CMPK1]
## Result Criterion met

## Task Quick check, thermal stability score >= -0.04? MSIFTPTNQIRLTNVAVVRMKRAGKRFEIACYKNKVVGWRSGVEKDLDEVLQTHSVFVNVSKGQVAKKEDLISAFGTDDQTEICKQILTKGEVQVSDKERHTQLEQMFRDIATIVADKCVNPETKRPYTVILIERAMKDIHYSVKTNKSTKQQALEVIKQLKEKMKIERAHMRLRFILPVNEGKKLKEKLKPLIKVIESEDYGQQLEIVCLIDPGCFREIDELIKKETKGKGSLEVLNLKDVEEGDEKFE [SBDS]
## Result Criterion met

## Task Quick check, thermal stability score >= -0.04? MKSLVLLLCLAQLWGCHSAPHGPGLIYRQPNCDDPETEEAALVAIDYINQNLPWGYKHTLNQIDEVKVWPQQPSGELFEIEIDTLETTCHVLDPTPVARCSVRQLKEHAVEGDCDFQLLKLDGKFSVVYAKCDSSPDSAEDVRKVCQDCPLLAPLNDTRVVHAAKAALAAFNAQNNGSNFQLEEISRAQLVPLPPSTYVEFTVSGTDCVAKEATEAAKCNLLAEKQYGFCKATLSEKLGGAEVAVTCMVFQTQPVSSQPQPEGANEAVPTPVVDPDAPPSPPLGAPGLPPAGSPPDSHVLLAAPPGHQLHRAHYDLRHTFMGVVSLGSPSGEVSHPRKTRTVVQPSVGAAAGPVVPPCPGRIRHFKV [AHSG]
## Result Criterion met

## Task Quick check, thermal stability score >= -0.04? MAANKPKGQNSLALHKVIMVGSGGVGKSALTLQFMYDEFVEDYEPTKADSYRKKVVLDGEEVQIDILDTAGQEDYAAIRDNYFRSGEGFLCVFSITEMESFAATADFREQILRVKEDENVPFLLVGNKSDLEDKRQVSVEEAKNRAEQWNVNYVETSAKTRANVDKVFFDLMREIRARKMEDSKEKNGKKKRKSLAKRIRERCCIL [RALA]
## Result Criterion not met

## Task Quick check, thermal stability score >= -0.04? MLPLSLLKTAQNHPMLVELKNGETYNGHLVSCDNWMNINLREVICTSRDGDKFWRMPECYIRGSTIKYLRIPDEIIDMVKEEVVAKGRGRGGLQQQKQQKGRGMGGAGRGVFGGRGRGGIPGTGRGQPEKKPGRQAGKQ [LSM4]
## Result Criterion not met

## Task Quick check, thermal stability score >= -0.04? MFSFNMFDHPIPRVFQNRFSTQYRCFSVSMLAGPNDRSDVEKGGKIIMPPSALDQLSRLNITYPMLFKLTNKNSDRMTHCGVLEFVADEGICYLPHWMMQNLLLEEGGLVQVESVNLQVATYSKFQPQSPDFLDITNPKAVLENALRNFACLTTGDVIAINYNEKIYELRVMETKPDKAVSIIECDMNVDFDAPLGYKEPERQVQHEESTEGEADHSGYAGELGFRAFSGSGNRLDGKKKGVEPSPSPIKPGDIKRGIPNYEFKLGKITFIRNSRPLVKKVEEDEAGGRFVAFSGEGQSLRKKGRKP [UFD1L]
## Result Criterion met

## Task Quick check, thermal stability score >= -0.04? MTSEVIEDEKQFYSKAKTYWKQIPPTVDGMLGGYGHISSIDINSSRKFLQRFLREGPNKTGTSCALDCGAGIGRITKRLLLPLFREVDMVDITEDFLVQAKTYLGEEGKRVRNYFCCGLQDFTPEPDSYDVIWIQWVIGHLTDQHLAEFLRRCKGSLRPNGIIVIKDNMAQEGVILDDVDSSVCRDLDVVRRIICSAGLSLLAEERQENLPDEIYHVYSFALR [NTMT1]
## Result Criterion met

## Task Quick check, thermal stability score >= -0.04? MQRVSGLLSWTLSRVLWLSGLSEPGAARQPRIMEEKALEVYDLIRTIRDPEKPNTLEELEVVSESCVEVQEINEEEYLVIIRFTPTVPHCSLATLIGLCLRVKLQRCLPFKHKLEIYISEGTHSTEEDINKQINDKERVAAAMENPNLREIVEQCVLEPD [FAM96A]
## Result Criterion met
